# IC50 per entry for EGFR (Homo sapiens, UniProt P00533)
Respond with the figure and its unit, in that order.

Past entries and their recorded results:
O=C(Nc1ccc(Cl)c(C(=O)Nc2cnc(Nc3ccc(OCCN4CCCC4)cc3)nc2)c1)c1cccc(C(F)(F)F)c1 [drawing 230]    98 nM
O=C(Nc1cccc(C(F)(F)F)c1)Nc1ccc(Cl)c(C(=O)Nc2cnc(Nc3ccc(OCCN4CCCC4)cc3)nc2)c1 [drawing 237]    558 nM

Read the next record carefully.
input: Give the reported IC50 for O=C(Nc1ccc(Cl)c(C(=O)Nc2cnc(Nc3ccc(CCCN4CCCC4)cc3)nc2)c1)c1cccc(C(F)(F)F)c1 [drawing 233] (system: EGFR (Homo sapiens, UniProt P00533)).
Sequence (P00533 25-1210, species assumed): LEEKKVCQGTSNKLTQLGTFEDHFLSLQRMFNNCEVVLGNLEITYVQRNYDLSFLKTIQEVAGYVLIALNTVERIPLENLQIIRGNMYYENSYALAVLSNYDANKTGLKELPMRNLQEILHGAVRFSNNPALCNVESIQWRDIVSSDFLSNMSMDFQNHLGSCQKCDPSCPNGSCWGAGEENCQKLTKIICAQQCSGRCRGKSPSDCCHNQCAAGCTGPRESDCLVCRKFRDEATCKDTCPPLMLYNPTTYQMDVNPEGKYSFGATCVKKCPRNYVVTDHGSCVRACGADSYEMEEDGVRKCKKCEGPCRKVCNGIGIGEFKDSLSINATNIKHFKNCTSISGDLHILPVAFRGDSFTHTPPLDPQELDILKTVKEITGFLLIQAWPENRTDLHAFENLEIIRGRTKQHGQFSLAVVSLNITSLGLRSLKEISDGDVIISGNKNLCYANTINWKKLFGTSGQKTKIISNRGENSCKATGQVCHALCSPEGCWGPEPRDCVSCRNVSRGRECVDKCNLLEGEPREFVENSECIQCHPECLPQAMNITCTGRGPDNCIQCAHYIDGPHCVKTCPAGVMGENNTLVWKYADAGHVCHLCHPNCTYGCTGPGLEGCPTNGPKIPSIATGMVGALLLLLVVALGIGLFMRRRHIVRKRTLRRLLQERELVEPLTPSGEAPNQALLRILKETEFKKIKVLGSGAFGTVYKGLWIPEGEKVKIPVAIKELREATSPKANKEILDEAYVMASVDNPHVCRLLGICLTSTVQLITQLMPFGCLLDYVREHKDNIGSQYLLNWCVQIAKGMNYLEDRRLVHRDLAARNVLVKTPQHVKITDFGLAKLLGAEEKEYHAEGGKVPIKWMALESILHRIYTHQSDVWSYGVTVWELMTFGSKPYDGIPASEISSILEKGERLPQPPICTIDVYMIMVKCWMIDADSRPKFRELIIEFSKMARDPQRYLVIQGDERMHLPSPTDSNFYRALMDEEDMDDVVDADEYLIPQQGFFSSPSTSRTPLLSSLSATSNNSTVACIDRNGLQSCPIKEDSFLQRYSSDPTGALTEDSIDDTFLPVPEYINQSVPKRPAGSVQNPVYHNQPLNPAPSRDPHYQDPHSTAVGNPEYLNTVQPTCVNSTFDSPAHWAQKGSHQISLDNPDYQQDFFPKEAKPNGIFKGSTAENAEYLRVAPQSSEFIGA
output: 124 nM

Where do the numbers come from? From patent US8030487B2.
